Biological target: human recombinant COX-2 enzyme (Homo sapiens, UniProt P35354)
Sequence (P35354 18-604): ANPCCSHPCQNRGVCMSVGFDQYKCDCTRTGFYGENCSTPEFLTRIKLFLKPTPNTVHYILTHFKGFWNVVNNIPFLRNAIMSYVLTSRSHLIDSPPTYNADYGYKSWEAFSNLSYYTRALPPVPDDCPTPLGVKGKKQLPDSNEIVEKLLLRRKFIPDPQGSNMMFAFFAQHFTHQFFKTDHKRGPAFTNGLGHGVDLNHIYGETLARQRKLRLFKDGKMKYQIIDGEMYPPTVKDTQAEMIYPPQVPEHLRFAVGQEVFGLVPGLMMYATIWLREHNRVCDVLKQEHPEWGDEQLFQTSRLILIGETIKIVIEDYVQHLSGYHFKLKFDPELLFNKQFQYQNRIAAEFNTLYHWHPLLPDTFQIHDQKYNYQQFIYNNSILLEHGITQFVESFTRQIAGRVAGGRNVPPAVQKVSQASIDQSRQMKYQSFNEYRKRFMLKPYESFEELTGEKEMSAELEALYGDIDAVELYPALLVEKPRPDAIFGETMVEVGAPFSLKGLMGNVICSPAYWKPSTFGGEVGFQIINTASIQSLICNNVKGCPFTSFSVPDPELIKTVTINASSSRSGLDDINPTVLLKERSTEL
Assay: In vitro COX-2 inhibition assay
measured parameter: IC50 (µM)

Sample answers from the record:
{"compound": "COC(=O)c1c(-c2ccccc2)c(C(=O)c2ccc(Cl)cc2)n2ccc(C)cc12 [Compound 4c]", "IC50 (µM)": 38.1}
{"compound": "COC(=O)c1c(-c2ccccc2)c(C(=O)c2ccc(F)cc2)n2ccc(C)cc12 [Compound 4b]", "IC50 (µM)": 27.1}
{"compound": "COC(=O)c1c(-c2ccccc2)c(C(=O)c2ccc(Br)cc2)n2ccc(C#N)cc12 [Compound 4f]", "IC50 (µM)": 13.5}
{"compound": "COC(=O)c1c(-c2ccccc2)c(C(=O)c2ccc(Br)cc2)n2ccc(C)cc12 [Compound 4d]", "IC50 (µM)": 37.7}
{"compound": "COC(=O)c1c(-c2ccccc2)c(C(=O)c2ccccc2)n2ccc(C)cc12 [Compound 4a]", "IC50 (µM)": 41.6}

a = COC(=O)c1c(-c2ccccc2)c(C(=O)c2ccc(C#N)cc2)n2ccc(C#N)cc12 [Compound 4e]
b = COC(=O)c1c(-c2ccccc2)c(C(=O)c2ccc(OC)cc2)n2ccc(C#N)cc12 [Compound 4g]
Query block: Thinking about recorded IC50 values, which is higher, a or b ? Answer with the label corresponding to your selection.
Result block: b

* * *

Measured melting point, listed per entry for reference.

{"compound": "COC(=O)c1c(-c2ccccc2)c(C(=O)c2ccc(Br)cc2)n2ccc(C#N)cc12 [Compound 4f]", "reported measurement": "208 to 209 °C"}
{"compound": "COC(=O)c1c(-c2ccccc2)c(C(=O)c2ccc(Br)cc2)n2ccc(C)cc12 [Compound 4d]", "reported measurement": "137 to 138 °C"}
{"compound": "COC(=O)c1c(-c2ccccc2)c(C(=O)c2ccc(Cl)cc2)n2ccc(C)cc12 [Compound 4c]", "reported measurement": "154 to 155 °C"}
{"compound": "COC(=O)c1c(-c2ccccc2)c(C(=O)c2ccc(F)cc2)n2ccc(C)cc12 [Compound 4b]", "reported measurement": "167 to 168 °C"}
{"compound": "COC(=O)c1c(-c2ccccc2)c(C(=O)c2ccc(OC)cc2)n2ccc(C#N)cc12 [Compound 4g]", "reported measurement": "166 to 167 °C"}
{"compound": "COC(=O)c1c(-c2ccccc2)c(C(=O)c2ccc(C#N)cc2)n2ccc(C#N)cc12 [Compound 4e]", "reported measurement": "235 to 236 °C"}

Attention now turns to another entry.
melting point reported for this compound COC(=O)c1c(-c2ccccc2)c(C(=O)c2ccccc2)n2ccc(C)cc12 [Compound 4a] : 173 to 174 °C
